Reported Ki is given for each of the following binders.
- MEASURED TARGET: human Kallikrein-6 (human, UniProt Q92876 22-244)
- MEASUREMENT PROTOCOL: inhibition of kallikrein-6 cleavage of BOC-Phe-Ser-Arg-AMC; slow tight-binding fit
ASSAY READOUT: Ki (nM)

* APPI-M17G/I18F/F34V (SEQ ID NO: 8), soluble (designed binder, also called APPI 3M; APPI^3M; not shown: AvrII site residues and C-terminal HIS6 tag) EVCSEQAETGPCRAGFSRWYFDVTEGKCAPFVYGGCGGNRNNFDTEEYCMAVCGSAI | 1.09
* APPI-WT (SEQ ID NO: 25), soluble, expressed in Pichia pastoris (other, Secreted from P. pastoris GS115, purified by nickel IMAC and gel filtration; also called WT APPI; not shown: N-terminal FLAG tag with the SnaBI/EcoRI-coded residues, and the C-terminal AvrII-coded residues plus His6) EVCSEQAETGPCRAMISRWYFDVTEGKCAPFFYGGCGGNRNNFDTEEYCMAVCGSAI | 2.23
